Listed here: items and their measured cell viability.
tested on: NOMO1; experiment: cell viability relative to DMSO control; higher = less cytotoxic; settings: RPMI 5 mM glucose + 10% FBS; 48 h; 0.0211 µM
endpoint label: cell viability (%)

INSERT INTO assay_data (compound, measure_unit, data_value) VALUES
  ('COC1=CC=C(C=C1)C2CC(=N/N2C3=CC=C(C=C3)[S+](N)([O-])=O)\C4=CC=CC=C4 (configuration not stated)', '%', 102),
  ('Cc1[nH]c(/C=C2\C(=O)Nc3ccc([S+](=O)([O-])Cc4c(Cl)cccc4Cl)cc32)c(C)c1C(=O)N1CCC[C@@H]1CN1CCCC1', '%', 93.2),
  ('OC(COC1=C2C(=O)\C=C(/OC2=CC=C1)C([O-])=O)COC3=C4C(=O)\C=C(/OC4=CC=C3)C([O-])=O', '%', 76.4),
  ('COc1cc([C@@H]2c3cc4c(cc3[C@@H](O[C@@H]3O[C@@H]5CO[C@@H](c6cccs6)O[C@H]5[C@H](O)[C@H]3O)[C@H]3COC(=O)[C@H]23)OCO4)cc(OC)c1O', '%', 97.2),
  ('COC(=O)[C@@H](N)CCCNC(=N)N[N+](=O)[O-]', '%', 88.9),
  ('CCN(CC)CCN1C(=O)\C(=N/C2=CC=CC=C12)CC3=CC=C(OC)C=C3', '%', 109),
  ('CC(C)(C)NC(=O)[C@H]1CC[C@H]2[C@@H]3CC[C@H]4NC(=O)\C=C/[C@]4(C)[C@H]3CC[C@]12C', '%', 96.5);
